Cited source for all entries: paper PMC3612106

Biological target: CYP2C8 (Homo sapiens)
Construct: purchased BD Gentest (Woburn, MA); host or cells: baculovirus-insect cells
Sequence (P10632 whole entry): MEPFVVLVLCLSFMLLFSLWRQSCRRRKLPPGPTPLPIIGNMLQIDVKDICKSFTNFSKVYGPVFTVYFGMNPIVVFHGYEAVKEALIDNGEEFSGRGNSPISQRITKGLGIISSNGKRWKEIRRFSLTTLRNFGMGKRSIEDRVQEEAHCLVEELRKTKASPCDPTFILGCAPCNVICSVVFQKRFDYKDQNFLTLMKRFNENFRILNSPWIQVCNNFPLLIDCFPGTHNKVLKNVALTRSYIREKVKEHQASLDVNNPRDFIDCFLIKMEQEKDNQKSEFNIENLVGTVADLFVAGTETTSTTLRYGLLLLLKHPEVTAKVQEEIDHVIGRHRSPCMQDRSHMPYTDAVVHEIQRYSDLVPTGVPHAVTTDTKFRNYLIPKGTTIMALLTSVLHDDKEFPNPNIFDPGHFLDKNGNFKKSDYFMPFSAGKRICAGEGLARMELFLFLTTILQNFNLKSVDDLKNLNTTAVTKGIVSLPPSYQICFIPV
Experiment: Incubation and kinetics with recombinant human CYP2C8
Assay type: in vitro ADME
Details: human, recombinant human CYP2C8 (baculovirus-insect cell-expressed); recombinant CYP2C8; read-out: Cl int of N-des-ethylation (M1 formation)
measured quantity: microsomal CLint
Record the result as a number with its unit.

CCN(CC)Cc1ccc(CC2Cc3cc(OC)c(OC)cc3C2=O)cc1 (stereo not shown) [M2] has a reported microsomal CLint of 2.58 µL/min/mg

====

Experiment: Metabolism and kinetics in pooled HLMs
Assay type: in vitro ADME, human
Details: human, pooled human liver microsomes, pH 7.4; HLMs; read-out: Cl int of hydrogenation (M2 formation)
measured quantity: microsomal CLint (µL/min/mg)
Express the result in µL/min/mg but write the number alone.

Noted for CCN(CC)Cc1ccc(/C=C2\Cc3cc(OC)c(OC)cc3C2=O)cc1 : its microsomal CLint reads 11.8
